Value source: PubChem BioAssay AID1963850

system: 192522-019-R-J2-PDC complex tumor spheroid viability; assay: Anticancer human tumor 192522-019-R-J2-PDC patient-derived colon adenocarcinoma cell line growth inhibition [POLQ]; conditions: second compound 10 µM; first compound 0.0316 µM; stronger effect = lower value;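 further: spheroids exposed to drugs for seven days before reading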
# label = TRUE if viability, T/C < 90% else FALSE

| molecule | qualitative.label |
| --- | --- |
| CCc1c2c(nc3ccc(O)cc13)-c1cc3c(c(=O)n1C2)COC(=O)[C@]3(O)CC + Nc1ccc(C#CCN(C(=O)Cc2ncc(C(F)(F)F)cc2C(F)(F)F)c2ccc(F)cc2)nn1 | TRUE |
| CCc1cc2c(N3CCc4c(cc(Cn5ccnc5)cc4-c4cn(C)nc4C(F)(F)F)C3=O)ccnc2c(OC)n1 + Nc1ccc(C#CCN(C(=O)Cc2ncc(C(F)(F)F)cc2C(F)(F)F)c2ccc(F)cc2)nn1 | FALSE |
| COc1cccc2c1C(=O)c1c(O)c3c(c(O)c1C2=O)CC(O)(C(=O)CO)CC3OC1CC(N)C(O)C(C)O1 (stereo not given) + COC1C(OC(N)=O)C(O)C(Oc2ccc3c(O)c(NC(=O)c4ccc(O)c(CC=C(C)C)c4)c(=O)oc3c2C)OC1(C)C | FALSE |

Prompt line: Below 90% on viability, T/C? Entry CC1COCCN1c1cc(C2(S(C)(=N)=O)CC2)nc(-c2ccnc3[nH]ccc23)n1 (stereo not given) + COC1C(OC(N)=O)C(O)C(Oc2ccc3c(O)c(NC(=O)c4ccc(O)c(CC=C(C)C)c4)c(=O)oc3c2C)OC1(C)C
Response line: FALSE
